Data origin, for the record: the supplement of paper PMC6757056

Below, each entry is listed with its recorded normalized RNA/DNA level without ligand (log10).
B1: library; a variant is named by its letters at N, in order (parent)
chain: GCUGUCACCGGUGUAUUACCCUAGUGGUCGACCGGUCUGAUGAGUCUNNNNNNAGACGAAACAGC

Variants of: B1
protocol_notes: normalized RNA/DNA level without ligand (relative to sTRSVctl = 100) (log10 (% of sTRSVctl)); ligand: hypoxanthine (xanthine aptamer); higher = less ribozyme self-cleavage, higher mRNA level
experimental_parameters: HEK293T, reporter: mCherry (pCS4076), ligand present: no
Give a plain numeric answer without units written out.

Before answering, review these 5 worked examples.
INSERT INTO measurements (variant, result_number) VALUES
  ('UUACGU', 1.83),
  ('CACGAU', 1.78),
  ('ACCUAG', 1.58),
  ('UAUGCA', 1.83),
  ('CCAGAA', 1.79);

Qu. What value of normalized RNA/DNA level without ligand (log10) has been reported for the following variant? CAACAC
Ans. 1.69
